molecular target: human TrkB kinase (Homo sapiens, UniProt Q16620); construct: The intracellular domain of a HIS-tagged human TrkB kinase; His tag; assay: TrkB Assay Format (HTRF kinase assay); settings: Trk inhibitory activity in the in-vitro TrkB HTRF assay
Sequence (Q16620 455-822 limits assumed): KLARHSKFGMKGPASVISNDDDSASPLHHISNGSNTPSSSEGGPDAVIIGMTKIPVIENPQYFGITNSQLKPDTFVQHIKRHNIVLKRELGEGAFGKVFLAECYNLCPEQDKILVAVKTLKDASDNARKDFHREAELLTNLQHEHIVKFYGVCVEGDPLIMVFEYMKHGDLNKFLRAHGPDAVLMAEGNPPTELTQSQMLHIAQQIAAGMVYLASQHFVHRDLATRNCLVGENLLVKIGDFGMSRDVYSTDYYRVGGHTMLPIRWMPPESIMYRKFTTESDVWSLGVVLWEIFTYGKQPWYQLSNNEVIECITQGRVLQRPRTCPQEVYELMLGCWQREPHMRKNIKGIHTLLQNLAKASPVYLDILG
Recorded endpoint: IC50 (nM)

{"Compound": "C[C@H](Nc1nccc(Nc2cc(C3CC3)n[nH]2)n1)c1ccc(F)cc1 [Example 42]", "Experimental target": "human TrkB kinase (Homo sapiens, UniProt Q16620)", "IC50 / nM": 67}

A: OCC[C@H](Nc1nc(Nc2cc(C3CC3)[nH]n2)c2sccc2n1)c1ccc(F)cc1 [Example 64]
B: COc1ccc2nc(N[C@@H](CO)c3ccc(F)cc3)nc(Nc3cc(C4CC4)[nH]n3)c2c1 [Example 80]
IC50 comparison. Which is larger, A or B ? Reply briefly: the label of your chosen item. B
(B: 87 nM, A: 59 nM)
